# System: 172.9 cells
# Protocol notes: cell viability (CellTiter-Glo) / MTDcc in 172.9 cells
# Applied conditions: tertiary screen; 48 hr exposure, 0.1-20 μM; highest concentration that retained at least 70% cell viability
Attribute measured: MTDcc

Molecule | MTDcc
CC(=O)OCC(=O)[C@@]12OC(C)(C)O[C@@H]1C[C@H]1[C@@H]3C[C@H](F)C4=CC(=O)C=C[C@]4(C)[C@@]3(F)[C@@H](O)C[C@@]12C [fluccinonide] | >20 µM
O=C1CCCN1CC#CCN1CCCC1 | >20 µM
Cc1cc(O)c2c(c1)C(=O)c1cccc(O)c1C2=O | 12.5 µM
NC[C@H]1O[C@H](O[C@H]2[C@H](O)[C@@H](O)[C@H](N)C[C@@H]2N)[C@H](N)[C@@H](O)[C@@H]1O | >20 µM
COP(=S)(OC)SCn1nnc2ccccc2c1=O | >20 µM

Need MTDcc for each of these molecules.
1. C=C1CC[C@H](O)C/C1=C/C=C1\CCC[C@]2(C)[C@@H]([C@H](C)CCCC(C)C)CC[C@@H]12
2. COc1ccc(C(=O)O)cc1OC
3. O=C(O)c1cc([N+](=O)[O-])ccc1NCCCc1ccccc1
4. CCOC(=O)C1=C(COCCN)NC(C)=C(C(=O)OC)C1c1ccccc1Cl (centres unmarked)

## Result
[">20 µM", ">20 µM", ">20 µM", "12.5 µM"]

Need MTDcc for each of these molecules.
1. CN(C)CCCN1c2ccccc2CCc2ccc(Cl)cc21
2. CN(CC(=O)O)C(=N)NP(=O)(O)O

## Result
12.5 µM
>20 µM

---

Assign % GFAP reductions, mGFAP protein via ELISA to each entry below.
# Tested on: mGFAP protein
# Protocol notes: cell-based GFAP protein level assay (cell-based ELISA) in 172.9 cells
# Design: species or system mouse
# Applied conditions: tertiary screen; 48 hr exposure; at the MTDcc
Structures can show the parent of a compound that is named as a salt.
Answers are plain numbers, in %.

Molecule | Reported value
CCC(=O)O[C@]1(C(=O)CCl)[C@@H](C)C[C@H]2[C@@H]3CCC4=CC(=O)C=C[C@]4(C)[C@@]3(F)[C@@H](O)C[C@@]21C [clobetasol propionate] | −7.6
CC(C)(CO)[C@@H](O)C(=O)NCCC(=O)O | −3.5
O=c1c(-c2cc(O)c(O)c(O)c2)coc2cc(O)c(O)c(O)c12 | 1.8

Need % GFAP reductions, mGFAP protein via ELISA for each of these molecules.
1. CC(=O)Nc1ccc(OC(=O)c2ccccc2O)cc1 [4-acetamidophenyl salicylate]
2. CN(C)/N=N/c1[nH]cnc1C(N)=O
3. CN1CCC(=C2c3ccccc3CC(=O)c3sccc32)CC1
4. CC(NCCc1ccc(O)cc1)C(O)c1ccc(O)cc1 (stereo not shown)

## Result
1: 8.6; 2: 2.4; 3: 8.6; 4: 5.2

Need % GFAP reductions, mGFAP protein via ELISA for each of these molecules.
1. C=C(C)[C@@H]1CC[C@]2(C(=O)O)CC[C@]3(C)[C@H](CC[C@@H]4[C@@]5(C)CC[C@H](O)C(C)(C)[C@@H]5CC[C@]43C)[C@@H]12
2. OCCN1CCN(CCCN2c3ccccc3Sc3ccc(C(F)(F)F)cc32)CC1
3. CCOC(=O)NC1=C(N2CC2)C(=O)C(NC(=O)OCC)=C(N2CC2)C1=O
4. CC(=O)OCC(=O)[C@@]12OC(C)(C)O[C@@H]1C[C@H]1[C@@H]3C[C@H](F)C4=CC(=O)C=C[C@]4(C)[C@@]3(F)[C@@H](O)C[C@@]12C [fluccinonide]

## Result
6.3
−6.7
9.5
−2.2

Need % GFAP reductions, mGFAP protein via ELISA for each of these molecules.
1. Cc1nc2sccn2c(=O)c1CCN1CCC(=C(c2ccc(F)cc2)c2ccc(F)cc2)CC1
2. COP(=S)(OC)SCn1nnc2ccccc2c1=O
3. O=C(O)c1cc([N+](=O)[O-])ccc1NCCCc1ccccc1
4. O=C(Oc1cc(O)cc2c1C[C@@H](OC(=O)c1cc(O)c(O)c(O)c1)[C@@H](c1cc(O)c(O)c(O)c1)O2)c1cc(O)c(O)c(O)c1 [EGCDG, epigallocatechin 3,5-digallate]
5. COC(=O)[C@H](O)[C@H]1C(C)(C)[C@H](OC(C)=O)[C@@H]2CC3=C4CC(=O)O[C@@H](c5ccoc5)[C@]4(C)CC[C@@H]3[C@@]1(C)C2=O [swietenolide-3-acetate]
6. CCCCCCCCCCCC1=C(O)C(=O)C=C(O)C1=O

## Result
[9.6, 4.7, 0.4, 4.5, 0.7, 10.8]

Need % GFAP reductions, mGFAP protein via ELISA for each of these molecules.
1. CSc1ccc2c(c1)N(CCC1CCCCN1C)c1ccccc1S2 (stereo not shown)
2. CC/C(=C(\c1ccccc1)c1ccc(OCCN(C)C)cc1)c1ccccc1 [tamoxifen citrate]

## Result
17.7
21.6

Need % GFAP reductions, mGFAP protein via ELISA for each of these molecules.
1. C[C@]12CC[C@@H]3c4ccc(OC(=O)c5ccccc5)cc4CC[C@H]3[C@@H]1CC[C@@H]2O [estradiol benzoate]
2. O=C1CCCN1CC#CCN1CCCC1
3. CN(C)CCCN1c2ccccc2CCc2ccc(Cl)cc21
4. COc1ccc2c(c1)O[C@@H]1COc3cc(OC)c(OC)cc3[C@@H]1C2=O

## Result
1: −2.8; 2: 2.7; 3: 20.6; 4: 1.6

Need % GFAP reductions, mGFAP protein via ELISA for each of these molecules.
1. CN(CC(=O)O)C(=N)NP(=O)(O)O
2. NC[C@H]1O[C@H](O[C@H]2[C@H](O)[C@@H](O[C@H]3O[C@H](CO)[C@@H](O)[C@H](N)[C@H]3O)[C@H](N)C[C@@H]2N)[C@H](O)[C@@H](O)[C@@H]1O
3. CCOP(=S)(OCC)Oc1ccc2c(C)c(Cl)c(=O)oc2c1
4. O=C(N[C@H](CO)[C@H](O)c1ccc([N+](=O)[O-])cc1)C(Cl)Cl
5. COc1ccc(C(=O)O)cc1OC
6. CN(C)CCC=C1c2ccccc2CCc2ccccc21
7. CCCCC(CC)CN1CN(CC(CC)CCCC)CC(C)(N)C1 (stereo not shown)

## Result
1: 3.8; 2: 11.3; 3: 0.4; 4: 0.9; 5: −0.8; 6: 12.2; 7: 6.4

Need % GFAP reductions, mGFAP protein via ELISA for each of these molecules.
1. Cc1cc(O)c2c(c1)C(=O)c1cccc(O)c1C2=O
2. C=C1CC[C@H](O)C/C1=C/C=C1\CCC[C@]2(C)[C@@H]([C@H](C)CCCC(C)C)CC[C@@H]12
3. CN(C)CC/C=C1/c2ccccc2Sc2ccc(Cl)cc21
4. NC[C@H]1O[C@H](O[C@H]2[C@H](O)[C@@H](O)[C@H](N)C[C@@H]2N)[C@H](N)[C@@H](O)[C@@H]1O

## Result
1. 18.6
2. −4.9
3. −3.6
4. −0.8

Data provenance: patent US8372808B2
